Biological target: Human recombinant 5-HT7 receptor (Homo sapiens)
Construct: expressed in transfected cells; host or cells: CHO cells (membrane preparation)
Sequence (P34969 whole entry): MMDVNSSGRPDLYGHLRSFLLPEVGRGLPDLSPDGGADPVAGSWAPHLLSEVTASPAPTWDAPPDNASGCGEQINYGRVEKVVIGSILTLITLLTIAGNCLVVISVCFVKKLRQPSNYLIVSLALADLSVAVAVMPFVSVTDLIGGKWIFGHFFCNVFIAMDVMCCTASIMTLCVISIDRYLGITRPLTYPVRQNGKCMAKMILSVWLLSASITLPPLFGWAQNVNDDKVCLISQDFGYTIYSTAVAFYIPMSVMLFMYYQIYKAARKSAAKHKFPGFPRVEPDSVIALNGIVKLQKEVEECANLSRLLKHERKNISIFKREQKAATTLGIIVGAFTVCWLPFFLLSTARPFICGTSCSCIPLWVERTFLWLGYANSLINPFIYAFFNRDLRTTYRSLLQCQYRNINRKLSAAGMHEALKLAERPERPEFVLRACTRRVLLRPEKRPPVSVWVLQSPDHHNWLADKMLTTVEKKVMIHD
Assay: Binding affinity for 5-HT7 serotonin receptor ([3H]LSD radioligand binding)
Conditions: 1 nM [3H]LSD; human recombinant 5-HT7 receptor expressed in CHO cells; 25° C., 90 minutes
pKi: −log10 of the molar value.

MOLECULE: Cc1ccc(C)c(N2CCN(Cc3ccccc3-c3ccccc3)CC2)c1 [Compound 21]
pKi: 6.18
//
MOLECULE: Clc1ccccc1N1CCN(Cc2cccc(-c3ccccc3)c2)CC1 [Compound 38]
pKi: 7.18
//
MOLECULE: Fc1cccc(N2CCN(Cc3cccc(-c4ccccc4)c3)CC2)c1 [Compound 36]
pKi: 7.10
//
MOLECULE: FC(F)(F)c1cccc(N2CCN(Cc3ccccc3-c3ccccc3)CC2)c1 [Compound 25]
pKi: 7.19
//
MOLECULE: COc1ccccc1N1CCN(Cc2ccccc2-c2ccccc2)CC1 [Compound 8]
pKi: 6.36
//
MOLECULE: Cc1cccc(N2CCN(Cc3cccc(-c4ccccc4)c3)CC2)c1 [Compound 47]
pKi: 7.82
